Cited source: BigSolDB 2.1

- reported.conditions: in ethyl acetate, 303.15 K
measurement.kind: solubility (mole fraction)

- compound: "CC(=O)C1=C(O)C=C2Oc3c(C(C)=O)c(O)c(C)c(O)c3C2(C)C1=O (stereo in doubt)"
  measurement.kind: "solubility (mole fraction)"
  reported: 0.00189

###

- reported.conditions: in ethanol, 338.15 K

- compound: "CC(=O)C1=C(O)C=C2Oc3c(C(C)=O)c(O)c(C)c(O)c3C2(C)C1=O (stereo in doubt)"
  solubility (mole fraction): 0.000274

###

- reported.conditions: in acetone, 293.15 K

- compound: "CC(=O)C1=C(O)C=C2Oc3c(C(C)=O)c(O)c(C)c(O)c3C2(C)C1=O (stereo in doubt)"
  solubility (mole fraction): 0.00061
